These measurements were taken from ChEMBL document CHEMBL1139006.

system: Staphylococcus epidermidis; assay: Antibacterial activity against Staphylococcus epidermidis ATCC 12228; type: functional

{"Molecule": "CC[C@H]1OC(=O)C[C@@H](O)[C@H](C)[C@@H](O[C@@H]2O[C@H](C)[C@@H](O)[C@H](N(C)C)[C@H]2O)[C@@H](CC=O)C[C@@H](C)C(=N/OCCCCc2cnc3ccccc3c2)/C=C/C(C)=C/C1CO (stereo partly drawn)", "Relation sign": "=", "MIC (µg/mL)": 0.2}
{"Molecule": "CC[C@H]1OC(=O)C[C@@H](O)[C@H](C)[C@@H](O[C@@H]2O[C@H](C)[C@@H](O)[C@H](N(C)C)[C@H]2O)[C@@H](CC=O)C[C@@H](C)C(=N/OCC#Cc2cnc3ccccc3c2)/C=C/C(C)=C/C1CO (stereo partly drawn)", "Relation sign": "=", "MIC (µg/mL)": 0.098}
{"Molecule": "CC[C@H]1OC(=O)C[C@@H](O)[C@H](C)[C@@H](O[C@@H]2O[C@H](C)[C@@H](O)[C@H](N(C)C)[C@@H]2O)[C@@H](CCN2CC(C)CC(C)C2)C[C@@H](C)C(=N/O)/C=C/C(C)=C/C1CO (stereo partly drawn)", "Relation sign": ">", "MIC (µg/mL)": 12.5}

* * *

test system: Haemophilus influenzae; assay: Antibacterial activity against Haemophilus influenzae EH001; assay type: functional
Quantity name: MIC

{"Compound": "CC[C@H]1OC(=O)C[C@@H](O)[C@H](C)[C@@H](O[C@@H]2O[C@H](C)[C@@H](O)[C@H](N(C)C)[C@H]2O)[C@@H](CCN2CC(C)CC(C)C2)C[C@@H](C)C(=N/OCCCc2ccc3ncccc3c2)/C=C/C(C)=C/C1CO (some centres undefined)", "Quantity name": "MIC", "Obs value": "3.12 µg/mL"}
{"Compound": "CC[C@H]1OC(=O)[C@H](C)C(=O)[C@H](C)[C@@H](O[C@@H]2O[C@H](C)C[C@H](N(C)C)[C@H]2O)[C@](C)(OC)C[C@@H](C)C(=O)[C@H](C)[C@H]2N(CCCCn3cnc(-c4cccnc4)c3)C(=O)O[C@]12C [TELITHROMYCIN]", "Quantity name": "MIC", "Obs value": "1.56 µg/mL"}
{"Compound": "CC[C@H]1OC(=O)C[C@@H](O)[C@H](C)[C@@H](O[C@@H]2O[C@H](C)[C@@H](O)[C@H](N(C)C)[C@H]2O)[C@@H](CC=O)C[C@@H](C)C(=O)/C=C/C(C)=C/C1CO (some centres undefined)", "Quantity name": "MIC", "Obs value": "3.12 µg/mL"}
{"Compound": "CC[C@H]1OC(=O)[C@H](C)[C@@H](O[C@H]2C[C@@](C)(OC)[C@@H](O)[C@H](C)O2)[C@H](C)[C@@H](O[C@@H]2O[C@H](C)C[C@H](N(C)C)[C@H]2O)[C@](C)(O)C[C@@H](C)C(=O)[C@H](C)[C@@H](O)[C@]1(C)O [ERYTHROMYCIN]", "Quantity name": "MIC", "Obs value": "3.12 µg/mL"}

* * *

tested on: Streptococcus pneumoniae; assay: Antibacterial activity against macrolide resistant Streptococcus pneumoniae ATCC 700906; format: functional
Quantity name: MIC

{"Compound": "CC[C@H]1OC(=O)C[C@@H](O)[C@H](C)[C@@H](O[C@@H]2O[C@H](C)[C@@H](O)[C@H](N(C)C)[C@H]2O)[C@@H](CC=O)C[C@@H](C)C(=N/OCC#Cc2cnc3ccccc3c2)/C=C/C(C)=C/C1CO (some centres undefined)", "Obs value": "> 12.5 µg/mL"}
{"Compound": "CC[C@H]1OC(=O)[C@H](C)C(=O)[C@H](C)[C@@H](O[C@@H]2O[C@H](C)C[C@H](N(C)C)[C@H]2O)[C@](C)(OC)C[C@@H](C)C(=O)[C@H](C)[C@H]2N(CCCCn3cnc(-c4cccnc4)c3)C(=O)O[C@]12C", "Obs value": "0.2 µg/mL"}
{"Compound": "CC[C@H]1OC(=O)C[C@@H](O)[C@H](C)[C@@H](O[C@@H]2O[C@H](C)[C@@H](O)[C@H](N(C)C)[C@H]2O)[C@@H](CC=O)C[C@@H](C)C(=N\\OCCCOc2ccc3ncccc3c2)/C=C/C(C)=C/C1CO (some centres undefined)", "Obs value": "> 12.5 µg/mL"}
{"Compound": "CC[C@H]1OC(=O)C[C@@H](O)[C@H](C)[C@@H](O[C@@H]2O[C@H](C)[C@@H](O)[C@H](N(C)C)[C@H]2O)[C@@H](CC=O)C[C@@H](C)C(=N/OCCOc2ccccc2)/C=C/C(C)=C/C1CO (some centres undefined)", "Obs value": "> 12.5 µg/mL"}
